What IC50 was measured for each of the following?
molecular target: Phosphodiesterase 6; assay: Inhibition of PDE6; format: protein assay, Homo sapiens

Problem: For the molecule shown here, COc1ccc2nnc3c(C)nc(-c4ccc(Cl)cc4Cl)n3c2n1 , give the reported IC50.
Result: > 1000 nM

Problem: For the molecule shown here, COc1cc(F)cc2c1nnc1c(C)nc(-c3cccc(F)c3C)n12 , give the reported IC50.
Result: > 1000 nM

Problem: For the molecule shown here, COc1cc(F)cc2c1nnc1c(C)nc(-c3ccncc3C)n12 , give the reported IC50.
Result: > 10000 nM

* * *

target: Phosphodiesterase 6; assay: Inhibition of PDE6; type: protein assay, Homo sapiens
Threshold 700 nM. IC50 below it: 1. IC50 at it or above: 0.

Problem: Below 700 nM on IC50? Entry COc1cc(F)cc2c1nnc1c(C)nc(-c3cnccc3C)n12
Result: 0

Problem: Below 700 nM on IC50? Entry COc1ccnc2c1nnc1c(C)nc(-c3cccnc3C)n12
Result: 0

Problem: Below 700 nM on IC50? Entry COc1ccnc2c1nnc1c(C)nc(-c3ccncc3C)n12
Result: 0

Problem: Below 700 nM on IC50? Entry COc1cccc(-c2nc(C)c3nnc4c(OC)cc(F)cc4n23)c1
Result: 0

Problem: Below 700 nM on IC50? Entry COc1ccc2nnc3c(C)nc(-c4cc(Cl)ccc4Cl)n3c2n1
Result: 0

Problem: Below 700 nM on IC50? Entry COc1ccc2nnc3c(C)nc(-c4ccccc4C)n3c2n1
Result: 0

Problem: Below 700 nM on IC50? Entry COc1ccc2nnc3c(C)nc(-c4ccccc4Cl)n3c2n1
Result: 1

Problem: Below 700 nM on IC50? Entry COc1ccc(F)c(-c2nc(C)c3nnc4ccc(OC)nc4n23)c1
Result: 0

Problem: Below 700 nM on IC50? Entry COc1cc(OC)c2nnc3c(C)nc(-c4ccccc4Cl)n3c2c1
Result: 1

Problem: Below 700 nM on IC50? Entry COc1cc(N2CCOCC2)cc2c1nnc1c(C)nc(-c3ccncc3C)n12
Result: 0

Problem: Below 700 nM on IC50? Entry COc1cccc2c1nnc1c(C)nc(-c3ccccc3C)n12
Result: 0

Problem: Below 700 nM on IC50? Entry COc1cc(N2CCOCC2)cc2c1nnc1c(C)nc(-c3ccccc3Cl)n12
Result: 1

Problem: Below 700 nM on IC50? Entry COc1ccc2nnc3c(C)nc(-c4ccc(F)cc4Cl)n3c2n1
Result: 1

Problem: Below 700 nM on IC50? Entry COc1cc(OC)c2nnc3c(C)nc(-c4ccccc4C(F)(F)F)n3c2c1
Result: 0

* * *

What IC50 was measured for each of the following?
molecular target: Phosphodiesterase 4 (Homo sapiens, UniProt P27815+Q08499+Q07343+Q08493); test: Inhibition of PDE4; type: protein assay

Problem: For the compound shown here, COc1cccc(-c2nc(C)c3nnc4c(OC)cc(F)cc4n23)c1 , give the reported IC50.
Result: > 1 µM

Problem: For the compound shown here, COc1cc(F)cc2c1nnc1c(C)nc(-c3c(C)nn(C)c3C)n12 , give the reported IC50.
Result: > 10 µM

Problem: For the compound shown here, COc1cc(F)c2nnc3c(C)nc(-c4ccccc4OC)n3c2c1 , give the reported IC50.
Result: > 1 µM

Cited source for all entries: ChEMBL document CHEMBL2069169
